Tested on: HCT-116
method: NCI tumour cell line growth inhibition, 48 h
Activity calls are given as the source filed them. Cut-off read from the data, not from the text of the source: active = GI50 up to about 1.1 µM and inactive = higher.
One label from this list, please: active, inactive

O=Cc1ccc(-c2nccc3c2[nH]c2ccccc23)o1 | inactive

In the following, a different molecule is considered.
Hi, sorry to bother you, what did the test record for COC(=O)CCC(NC(=O)OC(C)(C)C)C(=O)NC(Cc1ccc(NC(=O)CCCC(C)=O)cc1)C(=O)NC(CCC(=O)OC)C(=O)OC (configuration not stated) ?
inactive

* * *

System: CCRF-CEM
method: NCI tumour cell line growth inhibition, 48 h
Activity calls are given as the source filed them. Rule as the data show it: active = GI50 up to about 1.1 µM and inactive = higher.
The categories you may choose from are t (active), f (inactive)

Cn1cc2ccccc2c1-c1nc(F)nc(Oc2ccc3c(c2)CC[C@@H]2C3CC[C@@]3(C)C2CC[C@@H]3O)n1 (some centres not stated) | f

Assay result, entry COC(=O)C(C(=O)C(=O)Nc1ccc([N+](=O)[O-])cc1)c1nc2cc(C)c(C)cc2nc1O (configuration not stated) — outcome?
f

Just curious, what result did COc1cccc(C2c3cc4c(cc3OC(N3CCCC3)C2C)OCO4)c1O (configuration not stated) get here?
f

Please state the recorded outcome for this compound: ClC1=C(Cl)C2OC3C=CCC3OC2C(Cl)=C1Cl (configuration not stated)
f

Returns: the outcome recorded for CN[C@@H]1C[C@H]2O[C@@](C)([C@@H]1OC)n1c3ccccc3c3c4c(c5c6ccccc6n2c5c31)C(=O)N[C@@H]4O in this assay.
t

Please share the test call associated with O=Cc1ccc(-c2nccc3c2[nH]c2ccccc23)o1 .
f

Hello, I am checking results. What call was entered for Nc1nc(S)nc(C(=O)Nc2nccs2)c1-c1ccccc1 ?
f

Hi team, can someone confirm the assay call for CCOP(=O)(CC1CC(O)(CNc2cc(Cl)nc(N)n2)C1)OCC (configuration not stated) ?
f

GET /call?item= CCOC(=O)C(=O)Nc1nc2c(s1)C(=O)c1ccccc1C2=O returns the recorded outcome of this test.
f
